- ASSAY_PROTOCOL: Toxicity in ip dosed nude mouse administered for 2 weeks
- Format: organism-based
- APPLIED_CONDITIONS: in vivo
ASSAY_READOUT: MTD at 336 h (mg/kg)
Kindly answer with a numeric value in mg/kg, unit omitted.

MTD at 336 h for O=C1CCC(N2C(=O)c3ccccc3C2=O)C(=O)N1CO (stereo unspecified) ?
100

====

- ASSAY_PROTOCOL: Bioavailability in intragastrically administered rat
- Assay type: ADME, organism-based
- APPLIED_CONDITIONS: in vivo, po
ASSAY_READOUT: bioavailability (%)
Numeric answer only, unit % assumed.

Look up bioavailability for this compound: O=C(OCN1C(=O)CCC(N2C(=O)c3ccccc3C2=O)C1=O)c1cccnc1.O=S(=O)(O)c1ccccc1 (stereo unspecified)
60.7

====

- ASSAY_PROTOCOL: Antiproliferative activity against human ECV304 cells assessed as growth inhibition after 72 hrs by MTT assay
- Type: cell-based, ECV-304
- APPLIED_CONDITIONS: human, ECV304 cells; read-out: GI
ASSAY_READOUT: inhibition at 72 h

inhibition at 72 h lookup needed for O=C1CCC(N2C(=O)c3ccccc3C2=O)C(=O)N1 (stereo unspecified) [THALIDOMIDE] , thanks.
40%
